- testTarget: hT2R8 (Homo sapiens (Human), UniProt Q9NYW2)
- Sequence (Q9NYW2 whole entry): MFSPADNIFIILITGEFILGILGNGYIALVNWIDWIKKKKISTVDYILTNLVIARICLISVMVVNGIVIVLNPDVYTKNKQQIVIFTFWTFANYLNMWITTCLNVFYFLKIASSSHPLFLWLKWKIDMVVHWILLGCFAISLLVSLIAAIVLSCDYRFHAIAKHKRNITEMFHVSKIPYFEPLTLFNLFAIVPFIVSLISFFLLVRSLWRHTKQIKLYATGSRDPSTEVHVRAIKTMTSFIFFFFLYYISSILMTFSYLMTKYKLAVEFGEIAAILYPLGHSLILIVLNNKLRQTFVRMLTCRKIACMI
- procedureText: hT2R8 antagonist high-throughput FLIPR assay, stable cell line with G16g44, agonist andrographolide
- Type: cell-based
- protocolConditions: table after Example 12-37; read-out: hT2R8 IC50
pIC50: −log10 of the molar value.
Listing of entries alongside the reported pIC50.

| moleculeSmiles | pIC50 |
| --- | --- |
| Cc1noc(C)c1Cn1cc(N2C(=O)N(CCc3cccc(F)c3)C(C)(C)C2=O)cn1 | 6.82 |
| Cc1noc(C)c1Cn1cc(N2C(=O)N(Cc3cccc(C(F)(F)F)c3)C(C)(C)C2=O)cn1 | 5.81 |
| Cc1noc(C)c1Cn1cc(N2C(=O)N(Cc3cccc(O)c3O)C(C)(C)C2=O)cn1 | 7.00 |
| COc1ccc(CCN2C(=O)N(c3cnn(Cc4c(C)noc4C)c3)C(=O)C2(C)C)cc1OC | 6.89 |
| COc1cccc(CN2C(=O)N(c3cnn(Cc4c(C)noc4C)c3)C(=O)C2(C)C)c1OC | 6.52 |
| Cc1noc(C)c1Cn1cc(N2C(=O)N(Cc3cccc(F)c3F)C(C)(C)C2=O)cn1 | 6.51 |
| Cc1noc(C)c1Cn1cc(N2C(=O)N(Cc3ccccc3F)C(C)(C)C2=O)cn1 | 6.96 |
| Cc1noc(C)c1Cn1cc(N2C(=O)N(Cc3cc(F)ccc3F)C(C)(C)C2=O)cn1 | 6.62 |
